Values from patent US20200079833A1

Target: T1, glucose-dependent insulinotropic peptide (gastric inhibitory polypeptide) receptor (GIPR), primary cAMP assay (human, UniProt P48546 22-466)
T1 sequence (looked up): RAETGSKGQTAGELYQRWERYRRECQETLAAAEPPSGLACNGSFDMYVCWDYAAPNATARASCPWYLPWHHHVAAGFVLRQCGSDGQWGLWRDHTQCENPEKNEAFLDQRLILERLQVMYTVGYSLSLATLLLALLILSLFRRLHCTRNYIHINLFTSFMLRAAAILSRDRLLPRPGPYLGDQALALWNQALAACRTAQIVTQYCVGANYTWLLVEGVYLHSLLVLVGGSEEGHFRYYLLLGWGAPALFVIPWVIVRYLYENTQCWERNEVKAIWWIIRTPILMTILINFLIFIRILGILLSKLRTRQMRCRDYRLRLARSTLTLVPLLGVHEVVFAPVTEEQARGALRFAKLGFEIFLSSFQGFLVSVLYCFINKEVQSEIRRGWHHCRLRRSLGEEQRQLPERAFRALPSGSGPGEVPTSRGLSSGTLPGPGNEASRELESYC
Assay: cell-based or functional assay
Starred links: 1 amine or outer side, 2 acyl side, 3 side chain; linkers in the order of their positions; H or OH if unused. Non-standard residues stand in square brackets, D forms with d. Groups on a side chain read outwards from the residue. Primed or numbered codes have the meaning given here. No end group written: not given here. *: point of attachment. γGlu = O=C(O)[C@H](CCC(=O)[*:2])N[*:1]; Palmitoyl = CCCCCCCCCCCCCCCC(=O)*; αMeF = C[C@](N)(Cc1ccccc1)C(=O)O; αMeK = C[C@](N)(CCCCN)C(=O)O; Lauroyl = CCCCCCCCCCCC(=O)*; αMeS = C[C@](N)(CO)C(=O)O; PEG2′ = not defined here; Aib = CC(C)(N)C(=O)O
RECORDED ENDPOINT: Primary assay EC50 (cAMP), n1 (nM)

BINDER	Primary assay EC50 (cAMP), n1, nM
H[Aib]EGS[αMeF]TSDVSK([PEG2′-PEG2′-γGlu-Lauroyl])YLEGEAAEEFIK([PEG2′-PEG2′-γGlu-Lauroyl])WVVEGG-NH2 [SEQ ID NO: 240]	22.2
H[Aib]EGS[αMeF]TSDV[αMeS]SK([PEG2′-PEG2′-γGlu-Palmitoyl])LEGEAA[αMeK]EFIK([PEG2′-PEG2′-γGlu-Palmitoyl])WVVEGG-NH2 [SEQ ID NO: 265]	21.6
H[Aib]EGS[αMeF]TSDV[αMeS]SYK([PEG2′-PEG2′-γGlu-Lauroyl])EGEAA[αMeK]EFIK([PEG2′-PEG2′-γGlu-Lauroyl])WVVEGG-NH2 [SEQ ID NO: 268]	22.2
H[Aib]EGS[αMeF]TSDVSK([PEG2′-PEG2′-γGlu-Lauroyl])YLEGEAA[αMeK]EFIAWK([PEG2′-PEG2′-γGlu-Lauroyl])VEGG-NH2 [SEQ ID NO: 253]	22.3
H[Aib]EGS[αMeF]TSDVSK([PEG2′-PEG2′-γGlu-Palmitoyl])YLEGEAA[αMeK]EFIAK([PEG2′-PEG2′-γGlu-Palmitoyl])VVEGG-NH2 [SEQ ID NO: 254]	21.9
H[Aib]EGS[αMeF]TSDVSK([PEG2′-PEG2′-γGlu-Lauroyl])FLEGEAAEEFIK([PEG2′-PEG2′-γGlu-Lauroyl])FVVEGG-NH2 [SEQ ID NO: 241]	22.5
H[Aib]EGS[αMeF]TSDV[αMeS]SYK([PEG2′-PEG2′-γGlu-Palmitoyl])EGEAA[αMeK]EFIAK([PEG2′-PEG2′-γGlu-Palmitoyl])VVEGG-NH2 [SEQ ID NO: 272]	21.9
H[Aib]EGS[αMeF]TSDV[αMeS]SK([PEG2′-PEG2′-γGlu-Lauroyl])LEGEAA[αMeK]E[αMeF]IAK([PEG2′-PEG2′-γGlu-Lauroyl])VVEGG-NH2 [SEQ ID NO: 405]	21.5
